- target: HSD17B13 (Homo sapiens (Human), UniProt Q7Z5P4)
- Sequence (Q7Z5P4 other isoform, or with tags, fused parts or gaps): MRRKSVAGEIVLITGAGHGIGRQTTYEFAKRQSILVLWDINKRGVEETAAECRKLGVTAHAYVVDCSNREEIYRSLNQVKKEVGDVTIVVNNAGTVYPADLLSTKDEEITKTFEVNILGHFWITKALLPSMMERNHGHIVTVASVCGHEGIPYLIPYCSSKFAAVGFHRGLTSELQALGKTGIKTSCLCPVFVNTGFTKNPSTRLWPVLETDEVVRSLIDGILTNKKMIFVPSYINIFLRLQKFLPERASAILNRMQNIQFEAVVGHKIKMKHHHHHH
- method notes: HSD17B13 enzymatic inhibition assay (150 nM or 50 nM HSD17B13)
- Format: biochemical
- stated conditions: 50 nM HSD17B13; read-out: Inhibition of 50 nM of HSD17B13 IC50
Class definitions on IC50: low interval (below 80 nM), middle interval (80 nM to below 900 nM), high interval (900 nM or more)

1) Cc1ccc2c(c1)CN(C)C(=O)C2NC(=O)c1ccc(C(F)(F)F)[nH]c1=O (stereo not shown); high interval
2) CC1CCc2cc(Cl)ccc2C1NC(=O)c1ccc(C(F)(F)F)[nH]c1=O (stereo not shown); middle interval

Query :: Bin? `Cc1ccc2c(c1)Oc1cc(C)ccc1C2NC(=O)c1cc(C2CCOCC2)c(C(F)(F)F)[nH]c1=O`
Result :: low interval

Query :: Bin? CC(C)Cc1ccc(C(NC(=O)c2ccc(C(F)(F)F)[nH]c2=O)c2ccccc2)cc1 (stereo not shown)
Result :: high interval

Query :: Bin? `Cc1ccc2c(c1)Sc1cc(C)ccc1C2NC(=O)c1cc(CO)c(C(F)(F)F)[nH]c1=O`
Result :: low interval

Source: patent US11957687B2
